Attribute: pEC50
- Assay System: T1, monkey CDH6 protein (cynoCDH6 ECD-his) (monkey (cyno), UniProt A0A2K5TW62 19-615)
- T1 construct: range 19-615; also called Cyno CDH6-his; not shown: his tag
- T1 sequence: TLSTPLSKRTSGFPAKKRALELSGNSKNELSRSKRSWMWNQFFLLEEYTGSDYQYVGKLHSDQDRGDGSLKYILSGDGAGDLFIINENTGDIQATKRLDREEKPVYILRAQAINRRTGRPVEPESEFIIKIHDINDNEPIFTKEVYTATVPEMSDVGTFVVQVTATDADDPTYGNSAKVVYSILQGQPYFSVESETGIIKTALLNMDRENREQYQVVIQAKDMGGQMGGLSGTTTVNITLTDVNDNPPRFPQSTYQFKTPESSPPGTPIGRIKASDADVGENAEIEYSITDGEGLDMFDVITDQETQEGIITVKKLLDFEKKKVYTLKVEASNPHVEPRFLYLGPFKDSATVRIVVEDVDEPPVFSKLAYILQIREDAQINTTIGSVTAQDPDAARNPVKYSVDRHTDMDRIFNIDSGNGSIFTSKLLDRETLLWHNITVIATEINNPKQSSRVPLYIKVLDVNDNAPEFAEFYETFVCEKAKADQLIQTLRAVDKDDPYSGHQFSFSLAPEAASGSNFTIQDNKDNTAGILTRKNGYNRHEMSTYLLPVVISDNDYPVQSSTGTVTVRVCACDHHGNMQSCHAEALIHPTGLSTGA
- Test Protocol: ELISA, coated antigen
- Protocol: Human CDH6 protein (hCDH6 ECD-his, conventionally synthesized), monkey CDH6 protein (cynoCDH6 ECD-his, conventionally synthesized; the cynoCDH6 ECD sequence was derived from Uniprot #A0A2K5TW62 (19-615)), and murine CDH6 protein (mCDH6 ECD-his, conventionally synthesized; the mCDH6 ECD sequence was derived from Uniprot #P97326 (19-615)) were diluted with PBS to a final concentration of 1 μg/mL, and added to a 96-well ELISA plate at 100 μL/well. The plate was incubated at 4° C. overnight. […]
Notebook: values listed as pEC50 are -log10 of the concentration (mol/L).

Example results:
CHI-CDH6-14 (antibody, human IgG1, kappa, V domains shown, also called CHI-hCDH6-14; CH1-CDH6-14) VH: QIQLQQSGPELVKPGTSVKISCKASGYTFTDNYINWVRQRPGQGLEWIGWIYPGTGNSYYNEKFKGKATLTVDTSSSTAYMQFSSLTSEDSAVYLCASSYGDSFDYWGQGTTLTVSS VL: DIQMTQTTSSLSASLGNRVTISCRASQDIRNYLNWYQQKPDGTFKLLISYTSRLHSGVPSRFSGSGSGTDYSLTVSNLEPEDIATYYCQQYSQLPWTFGGGSRLEIKR    10.41
NOV0712 (antibody, human IgG1, kappa, V domains shown, Positive control, variable regions from WO2018212136A1; also called positive control anti-human CDH6 antibody) VH: QVQLLESGGGLVQPGGSLRLSCAASGFTFSSHGMHWVRQAPGKGLEWVSVISGSGSNTGYADSVKGRFTISRDNSKNTLYLQMNSLRAEDTAVYYCARQWGSYAFDSWGQGTLVTVSS VL: DIQMTQSPSSLSASVGDRVTITCRASQSISSYLNWYQQKPGKAPKLLIYAVSTLQSGVPSRFSGSGSGTDFTLTISSLQPEDFATYYCQQSGTFPPTTFGQGTKVEIKR    10.41
CHI-CDH6-8 (antibody, human IgG1, kappa, V domains shown, also called chimeric antibody of murine CDH6-8) VH: EVQLQQSGPELVKPGDSVKMSCKASGYTFTDYYMAWIKQNHGKSLEWIGYIYPNNGGTDYNQKFRGKATLTVDKSSSAAYMELHSLTSEDSAVYYCAREIGTLYGDYYAMDYWGQGTSVTVSS VL: DIQMTQSPASLSASVGETVTITCRASENIDSYLAWYQQKQGKSPQLLVYTATLLADGVPSRFSGSGSGTQYSLKINSLQSEDVARYYCQHYYSTPPTFGSGTKLEIKR    10.59
CHI-CDH6-4 (antibody, human IgG1, kappa, V domains shown, also called CH1-CDH6-4; chimeric antibody of murine CDH6-4) VH: QVQLQQSGPELVKPGASVKISCKASGYAFSNFWMNWVKQRPGKGLEWIGWIYPGDGDTNYNGKFKDKATLTADKSSSTAYIQLSSLTSEDSAVYFCARLYDAWGFFDYWGQGTTLTVSS VL: QIVLTQSPAIMSASPGQKVTITCSASSSVNYMHWYQQKLGSSPKLWIYDKSKLAPGVPARFSGSGSGTSYSLTISSMEAEDAASYFCHQWSSYPPMTFGGGTKLEIKR    10.47
CHI-CDH6-10 (antibody, human IgG1, kappa, V domains shown, also called chimeric antibody of murine CDH6-10) VH: QVQLQQPGAELVKPGTSVKMSCKASGYTFTSDWIAWVKQRPGQGLEWIGDIYPGSGRTHNNEKFNFKATLTVDTSSNTAYMQLSSLTSEDSAVYFCARPMLGRFDYWGQGTTLTVSS VL: DIVLTQSPASLAVSLGQRATISCRASESVSIHGTHLMHWYQQKPGQPPKLLIYAASNLESGVPARFSGSGSETDFTLNIHPVEEEDAATYFCQQSFEDPFTFGSGTKLEIKR    10.59
CHI-CDH6-5 (antibody, human IgG1, kappa, V domains shown, also called CH1-CDH6-5; chimeric antibody of murine CDH6-5) VH: QVQLQQSGAELVRPGTSVKMSCKAAEYTFTNYWIGWVKQRPGHGLEWIGDLYPGGDHANYNEKFEGKATLTADTSSSTAYMQLSSLTSEDSAIYYCARGMLTTGFDSWGQGTTLTVSS VL: DIVMSQSPSSLAVSAGEKVTMSCKSSQSLFNSRTRKNYLAWYQQKPGQSPKLLIYWASTRESGVPDRFTGSGSGTDFTLTISSVQAEDLAVYYCKQSYYLRTFGGGTKLEIKR    10.34
CHI-CDH6-11 (antibody, human IgG1, kappa, V domains shown, also called chimeric antibody of murine CDH6-11) VH: QIQLQQSGPELVKPGASVRISCKASGYTFTDYYITWVKLRPGQGLEWIGWIYPGSVNIKYNEKFKGKATLTVDTSSSTAYMQLNSLTSEDSAVYFCARGGYSWFPYWGQGTLVTVSA VL: NIVMTQSPKSMSMSVGERVTLSCKASENVHTYVSWYQQKPEQSPKLLFYGASTRNTGVPDRFTGSGSATDFTLTISSVQAEDLADYYCGQSYSYPYTFGSGTKLEIKR    10.49
CHI-CDH6-9 (antibody, human IgG1, kappa, V domains shown, also called chimeric antibody of murine CDH6-9) VH: QVQLQQPGAELVKPGASVKLSCKASGYTFTGYWMHWVRQRPGQGLEWIGEINPNNGGTNCNEQFKNKATLTVDKSSSTAYMQLSSLTSEDSAVFYCTISFGNYLFFDVWGAGTTVTVSS VL: DIQMTQSPASLAASVGETITITCQASENIYFSLAWYQQKQGKSPQLLIYNANTLEDGVPSRFVGSGSGTQYSMKINSIQPEDTATYFCDQTYDFPWTFGGGTKLEIKR    10.59

Data request, read-out pEC50, for CHI-CDH6-13 (antibody, human IgG1, kappa, V domains shown, also called chimeric antibody of murine CDH6-13) VH: DVQLQESGPGLVKPSQSLSLTCSVTGYSITKDSYWNWIRQFPGSKLEWMGFISYDGSRHYNPSLKNRISITRDTSKNQFFLQLNSVTTEDTATYYCARRDYADYWGQGTTLTVSS VL: QIVLTQSPALMSAFPGEKVTMTCSATSSVSYIYWYQQKPRSSPKPWIYLTSNLASGVPARFSGSGSGTSYSLTINSLEAEDAATYYCQQWSSIPYTFGGGTKLEIKR 10.77

Next binder: CHI-CDH6-2 (antibody, human IgG1, kappa, V domains shown, also called chimeric antibody of murine CDH6-2) VH: EVQLQQSGPELVKPGASVRISCKASGYTFTDYYMNWVKQSHGKSLEWIGDIDPNNANTTYNQKFKGKATLTVDKSSSTAYMELRSLTSEDSAVYSCASFGYDVEWFGYWGQGTLVTVSA VL: QIVLTQSPALMSASPGEKVTMTCSASSSVSYMYWYQQKPRSSPKPWIYLTSNLASGVPARFSGSGSGTSYSLTISSMEAEDAATYYCQQWSSNPFTFGSGTKLEIKR 10.66

Same question for CHI-CDH6-7 (antibody, human IgG1, kappa, V domains shown, also called CH1-CDH6-7; chimeric antibody of murine CDH6-7) VH: EVKLVESGGGLVKPGGSLKVSCAASGFTFSDHGMAWVRQAPGKGPEWVAFISNLAYSIYYADTVTGRFTISRENAKNTLYLEMSSLRSEDTAMYYCARVYVKWYFDVWGAGTTVTVSS VL: DIQMTQSPASLSASVGETVTITCRASENIDSYLAWYQQKQGKSPQLLVFAATLLADGVPSRFSGSGSGTQYSLKINSLQSEDVARYYCQHYYSTPLTFGAGTKLELKR please. 9.75
